Protocol: Plasma pharmacokinetics of CR665 after single IV infusion in human subjects
Condition Notes: female, human, plasma, iv, 0.06 mg/kg, CL, females, 5-minute IV infusion, geometric mean
Counter-ions that a name gives are not always drawn. Non-standard residues stand in square brackets, D forms with d. Residues, ends and D or L forms follow the SMILES beside them. *: point of attachment. NH(4-picolyl) = c1cc(CN*)ccn1; dNle = CCCC[C@@H](N)C(=O)O

{"columns": ["Compound", "clearance (mL/min)"],
 "data": [
  ["CCCC[C@@H](NC(=O)[C@@H](Cc1ccccc1)NC(=O)[C@H](N)Cc1ccccc1)C(=O)N[C@H](CCCNC(=N)N)C(=O)NCc1ccncc1 [CR665, acetate salt] (H-[dF][dF][dNle][dR]-{NH(4-picolyl)})", 544]
]}
